Tested on: bovine cardiac myofibrils
Assay: Myofibril assay: PK/LDH-coupled steady-state ATPase activity of skinned bovine cardiac myofibrils
Format: biochemical
Conditions: Ca2+ activating to 75% of maximal rate
endpoint: CDMF75 IC15 (µM)

O=C1C(C23CC(CO)(C2)C3)N(Cc2ccc(C(F)(F)F)cc2)C(=O)CN1c1ncc(Cl)cc1F (centres unmarked); 6.8
Cc1ccc(CN2C(=O)CN(C(C)C)C(=O)C23CN(c2ccnc(C)c2)C3)cc1; 21.1
CC(=O)N1CC2(C1)C(=O)N(c1ncc(Cl)cc1F)CC(=O)N2Cc1ccc(C(F)(F)F)cc1; 2.9
CC(C)N1CC(=O)N(Cc2ccc(Cl)cc2)C2(Cc3ccccc3C2)C1=O; 2.3
CC1(C2C(=O)N(c3ncc(Cl)cc3F)CC(=O)N2Cc2ccc(Cl)cc2)COC1 (centres unmarked); 2.0
Cc1nc([C@H]2C[C@]3(C2)C(=O)N(C(C)C)CC(=O)N3Cc2ccc(C(F)(F)F)cc2)oc1C (single isomer, unassigned) [Compound 500B]; 35.5

(A) Cc1cnc(N2CC(=O)N(Cc3ccc(C(F)(F)F)cc3)C(C3COC3)C2=O)c(F)c1 (racemic) [Compound 691]
(B) Cc1cc(Cl)cnc1N1CC(=O)N(Cc2ccc(F)cc2)C2(CN(c3ccc(C#N)cn3)C2)C1=O
(C) CC(=O)N1CC2(C1)C(=O)N(c1ccc(C#N)cc1F)CC(=O)N2[C@@H](C)c1ccc(C(F)(F)F)cc1
(D) Cc1cc(Cl)cnc1N1CC(=O)N(Cc2ccc(F)c(F)c2)C(C2COC2)C1=O (centres unmarked)
(E) CNC(=O)c1ccc(N2CC3(C2)C(=O)N(c2ccc(C#N)cc2F)CC(=O)N3Cc2ccc(C(F)(F)F)cc2)cc1
Thanks in advance: please rank these 5 entries by CDMF75 IC15, highest to lowest. List labels; respect the requested ordering. A, D, B, C, E

====

Tested on: bovine cardiac myofibrils
Experiment: Myofibril assay: PK/LDH-coupled steady-state ATPase activity of skinned bovine cardiac myofibrils
Assay type: biochemical
Settings: Ca2+ activating to 75% of maximal rate
endpoint: CDMF75 IC15 (nM)

(a) CC1(CO)C(=O)N(c2ccc(C#N)cc2F)CC(=O)N1Cc1ccc(C(F)(F)F)cc1 (stereo not drawn) [Compound 269]
(b) CC(C)N1CC(=O)N(Cc2ccc(C(F)(F)F)cc2)C2(CCN(C(=O)NC(C)(C)C)C2)C1=O (stereo not drawn) [Compound 112]
Smaller CDMF75 IC15 value? Options are a and b Reply with the label of the item you choose. a

(1) O=C1C(C2COC2)N(Cc2ccc(F)cc2)C(=O)CN1c1ncc(Br)cc1F (stereo not drawn) [Compound 707]
(2) CC(C)N1CC(=O)N(Cc2ccc(C(F)(F)F)cc2)C2(CN(c3cc[nH]c(=O)c3)C2)C1=O [Compound 48]
(3) CC(C)CN1CC(=O)N(Cc2ccc(C(F)(F)F)cc2)C2(CN(c3ccc(C#N)cn3)C2)C1=O [Compound 59]
(4) CC(C)C(=O)N1CC2(C1)C(=O)N(c1ccc(C#N)cc1F)CC(=O)N2Cc1ccc(C(F)(F)F)cc1 [Compound 174]
(5) N#Cc1ccc(N2CC(=O)N(Cc3ccc(C(F)(F)F)cc3)[C@]3(C[C@H](c4nnc(C(F)F)o4)C3)C2=O)c(F)c1 [Compound 454B]
Sequence the entries by CDMF75 IC15, beginning with the highest number. I'd appreciate it if you listed the labels in the requested order. 3, 4, 1, 2, 5
(3: 23400 nM, 4: 8000 nM, 1: 2900 nM, 2: 1600 nM, 5: 100 nM)

(I) CC(=O)N1CC2(C1)C(=O)N(c1ncc(Cl)cc1F)CC(=O)N2[C@@H](C)c1ccc(Cl)cc1 [Compound 556]
(II) C[C@@H](c1ccc(C(F)(F)F)cc1)N1C(=O)CN(c2ncc(Cl)cc2F)C(=O)C12CN(C=O)C2 [Compound 620]
Could you point out whether the larger CDMF75 IC15 belongs to I or to II ? // return label of chosen record I
(I: 2700 nM, II: 1800 nM)
